Where these numbers come from: ChEMBL document CHEMBL1157471

Provide the reported pKi of each item.
biological target: D(1A) dopamine receptor (Homo sapiens); assay: Displacement […] from human cloned dopamine D1 receptor
Sequence (P21728 whole entry): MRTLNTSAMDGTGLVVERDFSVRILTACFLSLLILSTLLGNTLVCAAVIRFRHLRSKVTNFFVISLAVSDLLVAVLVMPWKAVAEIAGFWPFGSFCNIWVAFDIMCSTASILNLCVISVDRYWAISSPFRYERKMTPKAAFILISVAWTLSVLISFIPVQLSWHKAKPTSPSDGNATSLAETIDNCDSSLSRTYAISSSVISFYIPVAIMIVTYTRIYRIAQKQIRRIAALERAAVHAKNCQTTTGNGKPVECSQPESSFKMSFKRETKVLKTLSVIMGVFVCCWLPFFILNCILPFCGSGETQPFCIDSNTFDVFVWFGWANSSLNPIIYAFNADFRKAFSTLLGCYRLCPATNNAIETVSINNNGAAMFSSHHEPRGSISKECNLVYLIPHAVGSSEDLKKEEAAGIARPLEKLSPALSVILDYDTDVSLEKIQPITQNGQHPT
Here pKi is given on a logarithmic scale as minus log10 of the concentration in mol/L.

Would you please give the reported pKi of CCN1CCc2ccccc2Cc2ccc(O)cc2CC1 with D(1A) dopamine receptor (Homo sapiens)?
8.43

Would you please give the reported pKi of Oc1ccc2c(c1)CCNCCc1ccccc1C2 with D(1A) dopamine receptor (Homo sapiens)?
7.20

Would you please give the reported pKi of COc1ccc2c(c1)CCN(C)CCc1ccccc1C2 with D(1A) dopamine receptor (Homo sapiens)?
7.64

Would you please give the reported pKi of CN1CCc2ccccc2Cc2[nH]c3ccccc3c2CC1 with D(1A) dopamine receptor (Homo sapiens)?
8.73

Would you please give the reported pKi of CN1CCCc2ccccc2Cc2ccc(O)cc2CC1 with D(1A) dopamine receptor (Homo sapiens)?
8.57

Would you please give the reported pKi of COc1ccc2c(c1)CCN(C)CCCc1ccccc1C2 with D(1A) dopamine receptor (Homo sapiens)?
7.66

Would you please give the reported pKi of CN1CCCc2c([nH]c3ccccc23)Cc2ccccc2CC1 with D(1A) dopamine receptor (Homo sapiens)?
6.80

Would you please give the reported pKi of CN1CCCc2ccccc2Cc2[nH]c3ccccc3c2CC1 with D(1A) dopamine receptor (Homo sapiens)?
8.69

Would you please give the reported pKi of COc1ccc2c(c1)CCCN(C)CCc1ccccc1C2 with D(1A) dopamine receptor (Homo sapiens)?
7.55

Would you please give the reported pKi of CN1CCc2ccccc2Cc2ccc(O)c(Cl)c2CC1 with D(1A) dopamine receptor (Homo sapiens)?
9.09

* * *

biological target: 5-hydroxytryptamine receptor 2A (Sus scrofa, UniProt P50129); test: Antagonist activity at serotonin 5HT2A receptor assessed as effect on 5HT-induced isometric contractile force in isolated rings of pig coronary artery; type: functional, tissue-based; settings: read-out: pA2 (converted)
Sequence (P50129 whole entry): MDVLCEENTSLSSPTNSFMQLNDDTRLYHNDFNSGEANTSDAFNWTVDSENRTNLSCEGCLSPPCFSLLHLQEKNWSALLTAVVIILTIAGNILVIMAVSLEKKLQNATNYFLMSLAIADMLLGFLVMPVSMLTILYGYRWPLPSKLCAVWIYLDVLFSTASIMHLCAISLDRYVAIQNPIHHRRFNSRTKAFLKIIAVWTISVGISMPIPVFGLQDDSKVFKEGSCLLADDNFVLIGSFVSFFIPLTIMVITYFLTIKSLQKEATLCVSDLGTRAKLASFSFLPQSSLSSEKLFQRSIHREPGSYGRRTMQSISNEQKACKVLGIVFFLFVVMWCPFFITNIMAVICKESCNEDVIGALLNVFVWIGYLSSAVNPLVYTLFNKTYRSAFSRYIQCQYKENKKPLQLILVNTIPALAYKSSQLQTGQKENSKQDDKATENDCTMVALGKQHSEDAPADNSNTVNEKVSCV
Provide the reported Kb of each item.
# include the unit after the value

Would you please give the reported Kb of CN1CCCc2ccccc2Cc2ccc(O)cc2CC1 with 5-hydroxytryptamine receptor 2A (Sus scrofa, UniProt P50129)?
2.14 nM

Would you please give the reported Kb of CN1CCCc2c([nH]c3ccccc23)Cc2ccccc2CC1 with 5-hydroxytryptamine receptor 2A (Sus scrofa, UniProt P50129)?
3.8 nM

Would you please give the reported Kb of CN1CCc2ccccc2Cc2ccc(O)cc2CC1 with 5-hydroxytryptamine receptor 2A (Sus scrofa, UniProt P50129)?
0.646 nM

Would you please give the reported Kb of O=C(c1ccc(F)cc1)C1CCN(CCn2c(=O)[nH]c3ccccc3c2=O)CC1 with 5-hydroxytryptamine receptor 2A (Sus scrofa, UniProt P50129)?
1.32 nM

Would you please give the reported Kb of COc1ccc2c(c1)CCN(C)CCc1ccccc1C2 with 5-hydroxytryptamine receptor 2A (Sus scrofa, UniProt P50129)?
2.04 nM

Would you please give the reported Kb of COc1ccc2c(c1)CCN(C)CCCc1ccccc1C2 with 5-hydroxytryptamine receptor 2A (Sus scrofa, UniProt P50129)?
3.39 nM

Would you please give the reported Kb of COc1ccc2c(c1)CCCN(C)CCc1ccccc1C2 with 5-hydroxytryptamine receptor 2A (Sus scrofa, UniProt P50129)?
5.75 nM

Would you please give the reported Kb of Oc1ccc2c(c1)CCNCCc1ccccc1C2 with 5-hydroxytryptamine receptor 2A (Sus scrofa, UniProt P50129)?
61.7 nM

Would you please give the reported Kb of CCN1CCc2ccccc2Cc2ccc(O)cc2CC1 with 5-hydroxytryptamine receptor 2A (Sus scrofa, UniProt P50129)?
3.98 nM

Would you please give the reported Kb of CN1CCc2ccccc2Cc2ccc(O)c(Cl)c2CC1 with 5-hydroxytryptamine receptor 2A (Sus scrofa, UniProt P50129)?
0.891 nM
